The measured values listed here are drawn from PubChem BioAssay (NCI).

Test: NCI Yeast Anticancer Drug Screen. Data for the sgs1 mgt1 strain (AID 161);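 further: 0% = growth of cultures given vehicle only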
Settings: S. cerevisiae sgs1 mgt1 strain, at 5.0 µM (retest, dose inferred, filed as 0.5)
Experimental: Growth inhibition of yeast strains with defined genetic alterations is measured as a screen for potential anti-cancer activity. Selected strains with alterations in DNA damage repair or cell cycle control were exposed to compounds and growth inhibition was measured relative to vehicle treated controls. The strain used in this assay is sgs1 mgt1
This is part of a sample that, as a whole, favours compounds with a hit. Of some 79,000 tested, about 15% had one in any assay. Calls of active or inactive are those of the source. No stated cut-off is given here; in the data, active means growth inhibition above about 70%; inactive means the rest.
Can you answer with just one of these options? active, inactive

Req: Returns: the outcome recorded for COc1ccc2nc3c([N+](=O)[O-])ccc(NCCN(C)C)c3c(NCCN(C)C)c2c1 in this assay.
Resp: inactive

Req: Returns: the outcome recorded for CC(C)/C(Cl)=N\OC(=O)Nc1ccc(F)cc1 in this assay.
Resp: inactive

Req: Returns: the outcome recorded for O=[N+]([O-])c1ccc2c(c1)C(N1CCN(CCO)CC1)Cc1ccc(F)cc1S2 (stereo unspecified) in this assay.
Resp: inactive

Req: Returns: the outcome recorded for COc1ccc(O)c(/C=N\Nc2ccccc2)c1 in this assay.
Resp: inactive

Req: Returns: the outcome recorded for O=Nc1cccnc1N=O in this assay.
Resp: active

Req: Returns: the outcome recorded for O=C(NCCCCCCCN1CCCCCCC1)C(C1CCCCC1)C1CCCCC1 in this assay.
Resp: inactive

Req: Returns: the outcome recorded for [N-]=[N+]=NC1=C(c2ccccn2)C(=O)c2cccc3cccc1c23 in this assay.
Resp: inactive

Req: Returns: the outcome recorded for CCOC(=O)C(NC(=O)c1ccccc1)(N1CCN(c2cc3c(cc2F)c(=O)c(C(=O)O)cn3C2CC2)CC1)C(F)(F)F (stereo unspecified) in this assay.
Resp: inactive

Req: Returns: the outcome recorded for CCS(=O)(=O)c1ccc(/C=C/C=N/NC(=S)NCC(C)C)cc1 in this assay.
Resp: inactive

Req: Returns: the outcome recorded for COc1cc2c3c(cccc3c1)C(=O)N(CCN(C)C)C2=O in this assay.
Resp: inactive

# input for lookup
Req: Returns: the outcome recorded for COc1ccc(NC(=S)N/N=C(\c2ccccc2)c2ccccn2)cc1 in this assay.
Resp: inactive

====

The following molecules are shown together with reported growth inhibition values.
Test: NCI Yeast Anticancer Drug Screen. Data for the wt1 strain (AID 149);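 further: 0% = growth of vehicle-treated wt1 cultures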
Conditions: S. cerevisiae wt1 strain (SPY 50644) growth inhibition; at 1.2 µM; hits give high values
About 79,000 compounds went through this panel and 15% of them were active in at least one assay; those are over-represented in the sample as a whole.
Respond with the bare value in %.

Req: Note down growth inhibition recorded for O=C(CC(=O)n1nc(-c2ccccc2)c(N=Nc2ccccc2C(=O)O)c1-c1ccccc1)Nc1ccc(Cl)cc1
Resp: -1

Req: Note down growth inhibition recorded for Cn1ccnc1Oc1ccc(Cl)cc1
Resp: 1

Req: Note down growth inhibition recorded for CC(C)C1=CC2=C[C@H](O)[C@H]3C(C)(C)CCC[C@]3(C)C2=C(O)C1=O
Resp: -3

Others:
Req: Note down growth inhibition recorded for COC(=O)c1cc(-c2ccc(C)cc2)[nH]c(=O)c1C#N
Resp: -2

Req: Note down growth inhibition recorded for CCC(C)COC(=O)c1ccc(N=Cc2ccc(C=Nc3ccc(C(=O)OCC(C)CC)cc3)cc2)cc1 (centres undefined)
Resp: -1

Req: Note down growth inhibition recorded for COC1=CC(=O)C(C2(OC(C)C)OC(=O)C(Cl)=C2Cl)=CC1=O (centres undefined)
Resp: 1

Req: Note down growth inhibition recorded for CCN(CC)[P+](c1ccccc1O)(N(CC)CC)N(CC)CC
Resp: -35

Req: Note down growth inhibition recorded for O=C(N=Nc1cc(Cl)ccc1Cl)NNc1cc(Cl)ccc1Cl
Resp: -2

Req: Note down growth inhibition recorded for Cc1ccc2ccc3cccc4ccc1c2c34
Resp: -2

Req: Note down growth inhibition recorded for O=[N+]([O-])c1cccc2nc3ccccc3c(NCCCN3CCOCC3)c12
Resp: -8

Req: Note down growth inhibition recorded for CCCCCCCCCC/C=C\C(=O)O
Resp: -12

Req: Note down growth inhibition recorded for O=C1C2C(C(=O)N1c1ccc(OCc3ccccc3)cc1)C1c3ccccc3C2C2CCCCN21 (centres undefined)
Resp: -6

Req: Note down growth inhibition recorded for CSC(=S)N/N=C(\C)c1cccc(C)n1
Resp: -4

Req: Note down growth inhibition recorded for Fc1ccc(NC(=S)SCc2ccc3c(c2)OCO3)cc1F
Resp: 6

Req: Note down growth inhibition recorded for CC(/C=C/c1ccc(Cl)cc1)=N\NC(=S)NCC(C)C
Resp: -2

Req: Note down growth inhibition recorded for COc1ccccc1/C=C1\Sc2scc(-c3cccc([N+](=O)[O-])c3)[n+]2C1=O
Resp: 33

Req: Note down growth inhibition recorded for CSC(=S)Nc1cc(C)ccn1
Resp: -9

Req: Note down growth inhibition recorded for CCN(CC)CCN1C(=O)c2cccc3cc(OC)cc(c23)C1=O
Resp: -5

Req: Note down growth inhibition recorded for COc1ccc2sc3cccc(NCCN(C)C)c3c(=O)c2c1
Resp: 1

Req: Note down growth inhibition recorded for Cc1ccc2ccc(O)cc2c1
Resp: -22

Req: Note down growth inhibition recorded for O=c1ssc2ncccc12
Resp: 2
